test: in vivo; set-up: species or system mice; details: female, BALB/c nude, mouse, iv, 20 pmol, total radioactivity, uptake in femur
PARAMETER_MEASURED: tissue uptake at 168 h (%ID/g)

INSERT INTO results (compound, parameter_measured, observed_measurement) VALUES
  ('CCCC[C@@H](C(=O)N[C@@H](CC(=O)O)C(=O)N[C@@H](Cc1cccc2ccccc12)C(N)=O)N(C)C(=O)[C@H](Cc1c[nH]c2ccccc12)NC(=O)CCNC(=O)CC(O)CNC(=O)CC(O)CNC(=O)CN1CCN(CC(=O)O)CCN(CC(=O)O)CCN(CC(=O)O)CC1 (stereo partly shown) [[^177Lu]Lu-2, metal not drawn]', 'tissue uptake at 168 h', 0.04);

* * *

Test: in vivo
Design: species or system mice
Conditions: female, BALB/c nude, mouse, iv, 20 pmol, total radioactivity, Tumor-to-stomach ratio
Method: Based on these preliminary studies, [^177Lu]Lu-2 was selected for further biodistribution studies evaluating the tumor uptake and tissue distribution for up to 7 days after injection. […] For quantification, a 1% standard was used. […] All collected samples were weighed and measured in the γ-counter together with the standard. Results were expressed as percentage of injected activity per gram of tissue (%IA/g), and tumor-to-organ activity ratios were calculated for selected tissues. […]
PARAMETER_MEASURED: tissue to tissue ratio at 1 h

INSERT INTO measurements (compound, observed_measurement) VALUES
  ('CCCC[C@@H](C(=O)N[C@@H](CC(=O)O)C(=O)N[C@@H](Cc1cccc2ccccc12)C(N)=O)N(C)C(=O)[C@H](Cc1c[nH]c2ccccc12)NC(=O)CCNC(=O)CC(O)CNC(=O)CC(O)CNC(=O)CN1CCN(CC(=O)O)CCN(CC(=O)O)CCN(CC(=O)O)CC1 (stereo partly shown) [[^177Lu]Lu-2, metal not drawn]', 10.4);

* * *

test: Biodistribution blocking experiment with 1000-fold excess of non-radiolabeled peptide; format: in vivo, mice; details: female, BALB/c nude, mouse, in vivo, iv, total radioactivity, uptake in blood, blocking
PARAMETER_MEASURED: tissue uptake at 4 h (%ID/g)

INSERT INTO measurements (molecule, observed_measurement) VALUES
  ('CCCC[C@@H](C(=O)N[C@@H](CC(=O)O)C(=O)N[C@@H](Cc1cccc2ccccc12)C(N)=O)N(C)C(=O)[C@H](Cc1c[nH]c2ccccc12)NC(=O)CCNC(=O)CC(O)CNC(=O)CC(O)CNC(=O)CN1CCN(CC(=O)O)CCN(CC(=O)O)CCN(CC(=O)O)CC1 (stereo partly shown) [[^177Lu]Lu-2, metal not drawn]', 0.02);

* * *

assay: in vivo; design: species or system mice; conditions: female, BALB/c nude, mouse, iv, 20 pmol, total radioactivity, uptake in heart
PARAMETER_MEASURED: tissue uptake at 168 h (%ID/g)

INSERT INTO assay_data (molecule, observed_measurement) VALUES
  ('CCCC[C@@H](C(=O)N[C@@H](CC(=O)O)C(=O)N[C@@H](Cc1cccc2ccccc12)C(N)=O)N(C)C(=O)[C@H](Cc1c[nH]c2ccccc12)NC(=O)CCNC(=O)CC(O)CNC(=O)CC(O)CNC(=O)CN1CCN(CC(=O)O)CCN(CC(=O)O)CCN(CC(=O)O)CC1 (stereo partly shown) [[^177Lu]Lu-2, metal not drawn]', 0.02);
